Assay Method Text: Cytotoxicity against human PANC1 cells in Dulbecco's modified Eagle medium measured after 24 hrs by WST8 assay
Type: toxicity, cell-based
Conditions: panc-1, 24 h
Endpoint Name: Activity

# example entries with known answers
Molecule | Activity
C=C(CC[C@@H](C)[C@H]1CC[C@@]2(C)[C@@H]3CC[C@H]4C(C)(C)[C@@H](O)CC[C@@]45C[C@@]35CC[C@]12C)[C@@H](C)C(=O)O | Non-Toxic
COc1cc(O)c(C(=O)c2ccc(O)cc2)c(O[C@@H]2O[C@H](CO)[C@@H](O)[C@H](O)[C@H]2O)c1 [MAHKOSIDE A] | Non-Toxic
C=C(CC[C@@H](C)[C@H]1CC[C@@]2(C)[C@@H]3CC[C@H]4C(C)(C)C(=O)CC[C@@]45C[C@@]35CC[C@]12C)[C@@H](C)C(=O)OC | Non-Toxic
COc1cc(O)c(C(=O)c2ccc(O)cc2)c(O)c1[C@@H]1O[C@H](CO)[C@@H](O)[C@H](O)[C@H]1O | Non-Toxic

Q. Recorded Activity of CCCC/C=C\CCCCCCCCCCCC(=O)O[C@H]1CC[C@]23C[C@]24CC[C@]2(C)[C@@H]([C@H](C)CC/C=C(\C)C(=O)O)CC[C@@]2(C)[C@@H]4CC[C@H]3C1(C)C , please.
A. Non-Toxic

Q. Recorded Activity of C/C(=C\CC[C@@H](C)[C@H]1CC[C@@]2(C)[C@@H]3CC[C@H]4C(C)(C)C(=O)CC[C@@]45C[C@@]35CC[C@]12C)C(=O)O [MANGIFERONIC ACID] , please.
A. Non-Toxic

====

Assay Method Text: Antiausteritic activity against human PANC1 cells in nutrient-deprived medium measured after 24 hrs by WST8 assay
Format: functional, PANC-1
Endpoint Name: PC50

Q. Recorded PC50 of C/C(=C\CC[C@@H](C)[C@H]1CC[C@@]2(C)[C@@H]3CC[C@H]4C(C)(C)C(=O)CC[C@@]45C[C@@]35CC[C@]12C)C(=O)O [MANGIFERONIC ACID] , please.
A. >100 µM

Q. Recorded PC50 of C[C@H](CC/C=C(\CO)C(=O)O)[C@H]1CC[C@@]2(C)[C@@H]3CC[C@H]4C(C)(C)[C@@H](O)CC[C@@]45C[C@@]35CC[C@]12C , please.
A. 52.1 µM

Q. Recorded PC50 of COc1cc(C[C@H]2C(=O)OC[C@@H]2Cc2ccc(OC)c(OC)c2)ccc1O [ARCTIGENIN] , please.
A. 0.8 µM

Q. Recorded PC50 of C/C(=C\C(O)C[C@@H](C)[C@H]1CC[C@@]2(C)[C@@H]3CC[C@H]4C(C)(C)[C@@H](O)CC[C@@]45C[C@@]35CC[C@]12C)C(=O)O (some centres not stated) , please.
A. >100 µM

Q. Recorded PC50 of C=C(CC[C@@H](C)[C@H]1CC[C@@]2(C)[C@@H]3CC[C@H]4C(C)(C)[C@@H](O)CC[C@@]45C[C@@]35CC[C@]12C)C(C)CO (some centres not stated) , please.
A. >100 µM

Q. Recorded PC50 of O=c1[nH]cc(F)c(=O)[nH]1 [FLUOROURACIL] , please.
A. >200 µM

Q. Recorded PC50 of C/C(=C\C(O)C[C@@H](C)[C@H]1CC[C@@]2(C)[C@@H]3CC[C@H]4C(C)(C)C(=O)CC[C@@]45C[C@@]35CC[C@]12C)C(=O)O (some centres not stated) , please.
A. 32.3 µM

Q. Recorded PC50 of C=C(CC[C@@H](C)[C@H]1CC[C@@]2(C)[C@@H]3CC[C@H]4C(C)(C)[C@@H](OC(C)=O)CC[C@@]45C[C@@]35CC[C@]12C)C(C)C(=O)O (some centres not stated) , please.
A. 11 µM

Q. Recorded PC50 of C=C(CC[C@@H](C)[C@H]1CC[C@@]2(C)[C@@H]3CC[C@H]4C(C)(C)[C@H](O)CC[C@@]45C[C@@]35CC[C@]12C)[C@@H](C)C(=O)O , please.
A. 4.8 µM

Q. Recorded PC50 of C[C@H](CC/C=C(\CO)C(=O)O)[C@H]1CC[C@@]2(C)[C@@H]3CC[C@H]4C(C)(C)C(=O)CC[C@@]45C[C@@]35CC[C@]12C , please.
A. >100 µM

Q. Recorded PC50 of C/C(=C\CC[C@@H](C)[C@H]1CC[C@@]2(C)[C@@H]3CC[C@H]4C(C)(C)[C@@H](O)CC[C@@]45C[C@@]35CC[C@]12C)C(=O)O [MANGIFEROLIC ACID] , please.
A. >100 µM

Q. Recorded PC50 of COc1cc(O)c(C(=O)c2ccc(O)cc2)c(O)c1[C@@H]1O[C@H](CO)[C@@H](O)[C@H](O)[C@H]1O , please.
A. >100 µM

Q. Recorded PC50 of CCCC/C=C\CCCCCCCCCCCC(=O)O[C@H]1CC[C@]23C[C@]24CC[C@]2(C)[C@@H]([C@H](C)CC/C=C(\C)C(=O)O)CC[C@@]2(C)[C@@H]4CC[C@H]3C1(C)C , please.
A. 69.6 µM

Q. Recorded PC50 of C=C(CC[C@@H](C)[C@H]1CC[C@@]2(C)[C@@H]3CC[C@H]4C(C)(C)C(=O)CC[C@@]45C[C@@]35CC[C@]12C)[C@@H](C)C(=O)OC , please.
A. 22.8 µM

Q. Recorded PC50 of C=C(CC[C@@H](C)[C@H]1CC[C@@]2(C)[C@@H]3CC[C@H]4C(C)(C)[C@@H](O)CC[C@@]45C[C@@]35CC[C@]12C)[C@@H](C)C(=O)OC , please.
A. >100 µM

Q. Recorded PC50 of COc1cc(O)c(C(=O)c2ccc(O)cc2)c(O)c1 , please.
A. >100 µM

Q. Recorded PC50 of C=C(CC[C@@H](C)[C@H]1CC[C@@]2(C)[C@@H]3CC[C@H]4C(C)(C)[C@@H](O)CC[C@@]45C[C@@]35CC[C@]12C)[C@@H](C)C(=O)O , please.
A. >100 µM

Q. Recorded PC50 of COc1cc(O)c(C(=O)c2ccc(O)cc2)c(O[C@@H]2O[C@H](CO)[C@@H](O)[C@H](O)[C@H]2O)c1 [MAHKOSIDE A] , please.
A. >100 µM

Q. Recorded PC50 of Nc1ccn([C@@H]2O[C@H](CO)[C@@H](O)C2(F)F)c(=O)n1 [GEMCITABINE] , please.
A. > 100 µM

Q. Recorded PC50 of C=C(CC[C@@H](C)[C@H]1CC[C@@]2(C)[C@@H]3CC[C@H]4C(C)(C)C(=O)CC[C@@]45C[C@@]35CC[C@]12C)[C@@H](C)C(=O)O , please.
A. 44.2 µM

Q. Recorded PC50 of O=c1c2cc(O)c(O)cc2oc2cc(O)c([C@@H]3O[C@H](CO)[C@@H](O)[C@H](O)[C@H]3O)c(O)c12 [MANGIFERIN] , please.
A. >100 µM

Q. Recorded PC50 of COc1cc(O)c(C(=O)c2ccc(O)cc2)c(O)c1[C@@H]1O[C@H](CO)[C@@H](O)[C@H](O)[C@H]1OC(=O)c1ccc(O)cc1 , please.
A. >100 µM
